- method: Cycloheximide Counterscreen for Small Molecule Inhibitors of Shiga Toxin; note: read at 38.3 µM for the half of the compounds with a filed dose; 0% is about no effect
- setupConditions: cell reporter, cycloheximide protein synthesis inhibition counterscreen; hits give high values
Out of some 300,000 compounds screened, about 37,000 (12%) were called active. This excerpt belongs to a sample that is enriched for actives.
Exercise: for every item that follows, state its recorded max response.

Recorded results for 3 compounds are shown here.
Cc1cccc(C)c1NC(=O)C(Cl)C(=O)c1ccccc1 (centres undefined) : -3.97% (inactive)
O=C(Nc1ccc(F)cc1)c1cc2c(s1)CCCC2 : 34.8% (active)
O=C(N/N=C/c1ccc(OCC2COCCO2)cc1)c1ccc(Br)cc1 (centres undefined) : 3.9% (inactive)

# map each compound to its max response
1. CCOC(=O)c1csc(NC(=O)Nc2cccc(OC)c2)n1
2. CCOc1ccccc1-c1nc(CN2CCC(C(=O)N3CCOCC3)CC2)c(C)o1
3. CC(C)(C)[Si](OCC[C@@H]1C[C@@]1(C)[C@@H](NP(=O)(c1ccccc1)c1ccccc1)c1ccccc1)(c1ccccc1)c1ccccc1
4. O=C(c1ccccc1)c1ccc(C(=O)N2CCN(c3ccccc3)CC2)cc1
5. C=CCn1c(SCc2ccc(Cl)c(Cl)c2)nnc1C(CO)NC(=O)c1ccc(OC)cc1 (centres undefined)
6. O=C(N/N=C/c1ccc2c(c1)OCO2)c1ccc(Cn2cc([N+](=O)[O-])cn2)o1
7. Cc1ccc(CN(CC(=O)NC2CCCCC2)C(=O)c2csnn2)cc1
8. CC(C)(C)OC(=O)N1CCC(C(=O)NNC(=O)c2ccc(Cl)cc2Cl)CC1

Output line:
15% (active)
5.66% (inactive)
-2.22% (inactive)
11.3% (inactive)
3.34% (inactive)
12.3% (inactive)
-2.39% (inactive)
1.42% (inactive)
